Sourced from patent US11401303B2

- Method summary: Limit test on intravenous injection at 2000 mg/kg BW dose level
- Assay type: in vivo, Konmin mouse
- Setup conditions: male, Konmin, in vivo, 2000 mg/kg BW; intravenous, mouse; judgment rule if survival animals ≥3 (5 of 5 survived)
Ends that are not written are not given here.
Measure name: LD50 at 9 h

Request: Return reported LD50 at 9 h; argument: RVLNGPEAPA [brap]
Result: > 2000 mg/kg

###

- Measured on: Bradykinin B2 receptor (Homo sapiens, UniProt P30411)
- Sequence (P30411 whole entry): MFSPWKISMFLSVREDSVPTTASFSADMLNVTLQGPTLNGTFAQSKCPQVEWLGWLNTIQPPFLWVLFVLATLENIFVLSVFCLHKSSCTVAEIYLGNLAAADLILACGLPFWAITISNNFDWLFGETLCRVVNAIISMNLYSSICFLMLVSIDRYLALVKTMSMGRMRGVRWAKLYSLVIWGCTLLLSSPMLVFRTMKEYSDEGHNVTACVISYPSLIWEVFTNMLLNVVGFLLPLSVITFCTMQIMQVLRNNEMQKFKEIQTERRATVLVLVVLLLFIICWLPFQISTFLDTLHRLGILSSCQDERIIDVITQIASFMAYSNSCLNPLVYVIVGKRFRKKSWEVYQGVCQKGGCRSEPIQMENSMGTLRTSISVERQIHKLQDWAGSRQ
- Method summary: cell-based
pIC50: −log10 of the molar value. Ends that are not written are not given here.
Measure name: pIC50

Request: Short answer please: pIC50, Bradykinin B2 receptor (Homo sapiens, UniProt P30411), entry RVLNGPEAPA [brap]
Result: ~3.00
